SYSTEM: human PAD4 (Homo sapiens, UniProt Q9UM07)
Construct: human PAD4 (NM_012387), A2-P663, was PCR amplified; His-SUMO (N, cleaved yes)
Sequence (Q9UM07 2-663): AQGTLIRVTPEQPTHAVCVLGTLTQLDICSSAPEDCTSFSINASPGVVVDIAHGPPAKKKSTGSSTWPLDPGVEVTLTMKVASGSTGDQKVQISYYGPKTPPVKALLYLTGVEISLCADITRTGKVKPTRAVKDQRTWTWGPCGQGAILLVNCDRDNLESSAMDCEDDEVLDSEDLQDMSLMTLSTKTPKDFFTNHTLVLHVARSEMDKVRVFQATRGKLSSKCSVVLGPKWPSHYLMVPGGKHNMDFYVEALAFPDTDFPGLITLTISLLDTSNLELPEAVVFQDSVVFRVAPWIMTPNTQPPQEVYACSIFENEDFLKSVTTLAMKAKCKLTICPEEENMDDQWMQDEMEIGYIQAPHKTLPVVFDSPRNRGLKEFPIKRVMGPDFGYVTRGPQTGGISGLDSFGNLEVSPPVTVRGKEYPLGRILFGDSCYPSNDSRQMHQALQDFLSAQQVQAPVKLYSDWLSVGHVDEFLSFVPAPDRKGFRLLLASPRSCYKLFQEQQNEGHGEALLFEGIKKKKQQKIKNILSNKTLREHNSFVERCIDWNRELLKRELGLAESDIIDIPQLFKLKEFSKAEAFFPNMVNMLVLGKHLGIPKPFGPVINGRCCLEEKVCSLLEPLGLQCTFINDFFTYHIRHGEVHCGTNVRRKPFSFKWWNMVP
ASSAY INFO: In vitro PAD4 BAEE biochemical assay
CONDITION SUMMARY: BAEE substrate 3 mM, 5 nM PAD4, 2 mM calcium chloride; geometric mean of multiple experiments
From the text: In Vitro PAD4 BAEE Biochemical Assay The enzymatic activity of human PAD4 was monitored in a biochemical assay in the presence or absence of compounds using the small peptidyl arginine mimic BAEE (Na-Benzoyl-L-arginine ethyl ester hydrochloride) as substrate. PAD4 activity led to deimination of BAEE and release of ammonia. Levels of ammonia were monitored by using an amine coupling reaction and were indicative of PAD4 enzymatic activity. […]
pIC50: −log10 of the molar value.
PARAMETER MEASURED: pIC50

COc1cc(C(=O)N2[C@H]3CC[C@@H]2[C@H](N)C3)cc2nc(-c3cc4ccc5nc4n3CCCCCCCC(=O)N[C@@H]5C(F)(F)F)n(C)c12: 7.41

P. C[C@H]1NC(=O)c2c(F)cncc2CCCCCn2c(-c3nc4cc(C(=O)N5C[C@H](N)[C@@H]6CC[C@H]5C6)cc(F)c4n3C3CC3)cc3ccc1nc32
Q. COc1cc(C(=O)N2C[C@H](N)[C@@H]3CC[C@H]2C3)cc2nc(-c3cc4ccc5nc4n3CCCCCc3cc(F)c(F)cc3C(=O)N[C@@H]5C)n(C)c12
Ask: Param metric = pIC50; output whichever of P , Q has the minimum value. API: response body contains the label of the selected item.
Reply: Q
(Q: 7.31, P: 7.57)
